assay_system: BCL-XL (Homo sapiens, UniProt Q07817)
Sequence (Q07817 whole entry): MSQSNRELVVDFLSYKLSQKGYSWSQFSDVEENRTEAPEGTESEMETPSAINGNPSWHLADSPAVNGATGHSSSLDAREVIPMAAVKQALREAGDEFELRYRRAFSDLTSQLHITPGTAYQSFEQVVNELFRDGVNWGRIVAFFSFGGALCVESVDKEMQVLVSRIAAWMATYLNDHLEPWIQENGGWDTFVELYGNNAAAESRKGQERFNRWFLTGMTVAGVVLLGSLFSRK
test_readout: Ki

Record summary for `Cc1nn(C)c(COc2ccc(N3CCN(S(=O)(=O)N(C)C)CC3)cc2)c1-c1cccc2c(CCCOc3cccc4ccccc34)c(C(=O)O)n(CCN3CCOCC3)c12` : reported Ki = > 660 nM

* * *

assay_system: BCL-2 (Homo sapiens)
Sequence (P10415 whole entry): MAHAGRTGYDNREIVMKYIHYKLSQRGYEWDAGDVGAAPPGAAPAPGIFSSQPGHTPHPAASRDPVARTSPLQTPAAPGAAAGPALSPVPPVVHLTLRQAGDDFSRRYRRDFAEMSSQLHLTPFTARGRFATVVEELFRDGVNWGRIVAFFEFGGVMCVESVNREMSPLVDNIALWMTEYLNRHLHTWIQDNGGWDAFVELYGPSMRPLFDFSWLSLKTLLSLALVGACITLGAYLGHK
test_readout: Ki (µM)
Numbers only, in µM.

For record `Cc1nn(C)c(COc2ccc(N3CCN(S(=O)(=O)N(C)C)CC3)cc2)c1-c1cccc2c(CCCOc3cccc4ccccc34)c(C(=O)O)n(CCN3CCOCC3)c12` the listed Ki is 0.132
